Entry source: ChEMBL document CHEMBL1135708

# Assay target: Catechol O-methyltransferase (Rattus norvegicus) (UniProt P22734)
# Procedure details: Percent inhibition of Catechol O-methyltransferase activity in rat liver at dose of 30 mg/kg determined at 6 hr after its administration
# Format: organism-based
# Parameters: dose 30 mg/kg
Quantity kind: inhibition (%)

Would you please look over these solved cases?
Molecule | Scale unit | Endpoint value
O=[N+]([O-])c1cc(/C(Cc2ccccc2)=N\O)cc(O)c1O | % | 48
CC(=O)Oc1cc(C(=O)C(Br)c2ccccc2)cc([N+](=O)[O-])c1OC(C)=O (stereo not given) | % | 48
O=C(Cc1ccc2ccccc2c1)c1cc(O)c(O)c([N+](=O)[O-])c1 | % | 83
Cc1ccc(CC(=O)c2cc(O)c(O)c([N+](=O)[O-])c2)cc1 | % | 83

[P] CC(=O)Oc1cc(C(=O)C(Cc2ccccc2)c2ccccc2)cc([N+](=O)[O-])c1OC(C)=O (stereo not given)
[Q] CC(=O)Oc1cc(C(=O)Cc2ccccc2[N+](=O)[O-])cc([N+](=O)[O-])c1OC(C)=O
Enquiry: Looking at P and Q , which one comes out lower in inhibition terms? Field: selected label. Fill in the label of the entry you choose.
Return: Q
(Q: 28%, P: 63%)

---

# Assay target: Catechol O-methyltransferase (Rattus norvegicus)
# Procedure details: Percent inhibition of Catechol O-methyltransferase activity in rat brain at dose of 30 mg/kg determined at 6 h after its administration
# Format: organism-based
# Design: dose 30 mg/kg
Quantity kind: inhibition (%)

The following compounds have reported results that may help.
Compound | Scale unit | inhibition
Cc1ccc(CC(=O)c2cc(O)c(O)c([N+](=O)[O-])c2)cc1 | % | 23
CC(=O)Oc1cc(C(=O)C(Br)c2ccccc2)cc([N+](=O)[O-])c1OC(C)=O (centres undefined) | % | 20
O=C(Cc1cccc2ccccc12)c1cc(O)c(O)c([N+](=O)[O-])c1 | % | 10
CC(=O)Oc1cc(C(=O)Cc2ccccc2[N+](=O)[O-])cc([N+](=O)[O-])c1OC(C)=O | % | 20
O=[N+]([O-])c1cc(/C(Cc2ccccc2)=N\O)cc(O)c1O | % | 13

[A] O=C(c1cc(O)c(O)c([N+](=O)[O-])c1)C(c1ccccc1)c1ccccc1
[B] CC(=O)Oc1cc(C(=O)C(C)c2ccccc2)cc([N+](=O)[O-])c1OC(C)=O (centres undefined)
Enquiry: Which record would sort first by descending inhibition, A or B ? Respond with the label that goes with your answer.
Return: B

---

# Assay target: Catechol O-methyltransferase (Rattus norvegicus)
# Sequence (whole entry): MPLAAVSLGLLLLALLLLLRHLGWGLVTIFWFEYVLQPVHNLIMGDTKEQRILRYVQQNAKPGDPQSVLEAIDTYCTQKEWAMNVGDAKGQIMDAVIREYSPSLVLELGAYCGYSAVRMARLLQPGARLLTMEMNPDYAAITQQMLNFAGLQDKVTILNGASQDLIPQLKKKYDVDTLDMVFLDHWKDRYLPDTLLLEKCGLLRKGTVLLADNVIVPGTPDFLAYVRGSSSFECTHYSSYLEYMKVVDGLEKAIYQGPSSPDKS
# Procedure details: Percent inhibition of Catechol O-methyltransferase activity in rat liver at dose of 30 mg/kg determined at 6 hr after its administration
# Format: organism-based
# Design: dose 30 mg/kg
Quantity kind: inhibition (%)

Worked cases, answers included:
Molecule | inhibition / %
Cc1ccccc1CC(=O)c1cc(O)c(O)c([N+](=O)[O-])c1 | 74
O=C(c1cc(O)c(O)c([N+](=O)[O-])c1)C(c1ccccc1)c1ccccc1 | 13
COc1ccc(CC(=O)c2cc(OC(C)=O)c(OC(C)=O)c([N+](=O)[O-])c2)cc1 | 72
O=c1oc(-c2cc(O)c(O)c([N+](=O)[O-])c2)cc2ccccc12 | 15
CC(=O)Oc1cc(C(=O)Cc2ccc([N+](=O)[O-])cc2)cc([N+](=O)[O-])c1OC(C)=O | 49
CC(=O)Oc1cc(C(=O)C(C)(C)c2ccccc2)cc([N+](=O)[O-])c1OC(C)=O | 19

[A] O=C(Cc1cccc2ccccc12)c1cc(O)c(O)c([N+](=O)[O-])c1
[B] O=[N+]([O-])c1cc(CCc2ccccc2)cc(O)c1O
[C] CC(=O)Oc1cc(C(=O)C(C)c2ccccc2)cc([N+](=O)[O-])c1OC(C)=O (centres undefined)
[D] CC(=O)Oc1cc(C(=O)C2(c3ccccc3)CCCCC2)cc([N+](=O)[O-])c1OC(C)=O
Enquiry: Sort the molecules on inhibition; start with the lowest figure. Order the labels as requested and list them.
Return: B, D, C, A
(B: 0%, D: 14%, C: 42%, A: 70%)
